test system: CEM WT, CEM AB9228, MOLT-4, Jurkat, NALL-1, WI-L2, K562, and HL-60 cells; experiment: Cytotoxicity to various proliferating cell lines (average); format: cell-based, human; details: average TC50 over various proliferating cell lines; read-out: TC50 (the source's name)
measurement_type: CC50 (µM)

INSERT INTO results (compound, data_value) VALUES
  ('COc1cc2c(cc1OC)C(=O)C(=Cc1cc(F)cc(F)c1)C2 [5,6-dimethoxy-2-(3'',5''-difluorophenylmethylene)-1-indanone (]', 26);

----------
system: CEM WT, CEM AB9228, MOLT-4, Jurkat, NALL-1, WI-L2, K562, and HL-60 cells; assay: Cytotoxicity to various proliferating cell lines (average); type: cell-based, human; conditions: Homo sapiens, average TC50 over various proliferating cell lines; read-out: TC50 (the source's name)
Each record's CC50 is compared with lo: < 0.8 µM; mid: ≥ 0.8 µM and < 10 µM; hi: ≥ 10 µM to give its class.

INSERT INTO results (molecule, label) VALUES
  ('COc1cc2c(c([N+](=O)[O-])c1OC)C(=O)/C(=C/c1cc(C)c(O)c(C)c1)C2', 'hi'),
  ('COc1cc2c(cc1OC)C(=O)C(=Cc1cc(C)ccc1C)C2', 'hi'),
  ('COc1ccc(OC)c(C=C2CCc3cc(OC)c(OC)cc3C2=O)c1', 'hi'),
  ('COc1cc(C=C2Cc3cc4c(cc3C2=O)OCO4)cc(OC)c1', 'hi'),
  ('COc1cc2c(cc1OC)C(=O)C(=Cc1cc(C)cc(C)c1)C2', 'lo'),
  ('COc1cc2c(cc1OC)C(=O)C(=Cc1c(Cl)cc(-c3ccncc3)cc1Cl)C2', 'hi'),
  ('COc1cc2c(cc1OC)C(=O)C(=Cc1cc(C)cc(C)c1)CC2', 'mid'),
  ('COc1cc2c(cc1OC)C(=O)C(=CC1(O)CC(OC)CC(OC)C1)C2 (stereo not shown)', 'mid'),
  ('COc1cc2c(c(N)c1OC)C(=O)C(=Cc1cc(C)c(O)c(C)c1)C2', 'lo'),
  ('COc1cc2c(cc1OC)C(=O)C(=Cc1cc(C)ccc1C)CC2', 'mid'),
  ('COc1cc(/C=C2\CCc3cc(OC)c(OC)cc3C2=O)cc(OC)c1', 'mid'),
  ('COc1cc2c(cc1OC)C(=O)C(=Cc1ccc(N)cc1)CC2', 'hi'),
  ('COc1cc2c(cc1OC)C(=O)C(=Cc1c(C)cccc1C)CC2', 'hi'),
  ('COc1cc2c(cc1OC)C(=O)/C(=C/c1cc(Cl)cc(Cl)c1)C2', 'lo'),
  ('COc1cc2c(cc1OC)C(=O)C(=Cc1ccc(O)cc1)CC2', 'hi'),
  ('COc1cccc2c1C(=O)C(=Cc1cc(C)c(O)c(C)c1)C2', 'hi'),
  ('COc1cc2c(cc1OC)C(=O)C(=Cc1cc(OC)c(OC)c(OC)c1)CC2', 'hi'),
  ('COc1cc2c(cc1OC)C(=O)C(=Cc1cc(OC(F)(F)F)cc(OC(F)(F)F)c1)C2', 'hi'),
  ('COc1cc(C=C2Cc3cc(OC)c(OC)cc3C2=O)cc(OC)c1', 'lo'),
  ('COc1ccc(C=C2CCc3cc(OC)c(OC)cc3C2=O)cc1OC', 'hi');

----------
tested on: CEM WT, CEM AB9228, MOLT-4, Jurkat, NALL-1, WI-L2, K562, and HL-60 cells; assay: Cytotoxicity to various proliferating cell lines (average); type: cell-based, human; details: Homo sapiens, average TC50 over various proliferating cell lines; read-out: TC50 (the source's name)
measurement_type: CC50

INSERT INTO results (smiles_data, test_target, measurement_type, data_value) VALUES
  ('COc1cc2c(cc1OC)C(=O)C(=Cc1cc(C)c(OC(=O)CCC(=O)O)c(C)c1)C2', 'CEM WT, CEM AB9228, MOLT-4, Jurkat, NALL-1, WI-L2, K562, and HL-60 cells', 'CC50', '1 µM'),
  ('COc1cc2c(cc1OC)C(=O)C(=Cc1ccc(O)c(C(=O)O)c1)CC2', 'CEM WT, CEM AB9228, MOLT-4, Jurkat, NALL-1, WI-L2, K562, and HL-60 cells', 'CC50', '> 50 µM'),
  ('O=C1C(=Cc2cc(O)c(O)c(O)c2)CCc2cc(O)c(O)cc21', 'CEM WT, CEM AB9228, MOLT-4, Jurkat, NALL-1, WI-L2, K562, and HL-60 cells', 'CC50', '43 µM');

FYI, the data here is from patent US6162810A.
